Test: Stability of prodrugs on storage at RT and RF
Type: physicochemical
Conditions: 15 day, storage under refrigeration/4° C., acetonitrile for analysis; in % (unit assumed)
measured-parameter: Stability, value at 15 DAY, RF

The reported Stability, value at 15 DAY, RF of the compound CNC(=O)c1ccc[n+](COC(=O)/C=C/C(=O)OC)c1.[I-] [SPR11575] was 97.66

The reported Stability, value at 15 DAY, RF of the compound COC(=O)/C=C/C(=O)OCOC(=O)c1cccnc1 [SPR11577, methyl((nicotinoyloxy) methyl)fumarate] was 100

The reported Stability, value at 15 DAY, RF of the compound COC(=O)/C=C/C(=O)OC[n+]1cccc(C(=O)N(C)C)c1.[I-] [SPR11576] was 97.82

The reported Stability, value at 15 DAY, RF of the compound COC(=O)/C=C/C(=O)OC[n+]1cccc(C(N)=O)c1.[I-] [SPR11574] was 97.95
